Target or system UniProt:P22734; recorded quantity log10 IC50.
Sequence (P22734 whole entry): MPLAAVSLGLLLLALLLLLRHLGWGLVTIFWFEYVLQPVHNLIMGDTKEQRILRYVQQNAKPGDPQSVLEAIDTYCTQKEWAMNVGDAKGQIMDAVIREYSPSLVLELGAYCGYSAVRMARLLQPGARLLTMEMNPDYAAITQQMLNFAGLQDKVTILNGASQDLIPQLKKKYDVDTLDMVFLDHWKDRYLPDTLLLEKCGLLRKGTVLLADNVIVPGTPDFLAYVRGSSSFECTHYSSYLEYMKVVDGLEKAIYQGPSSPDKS
Please note: log10 values; quantity IC50; unit µM.

Request: Any idea what log10 IC50 came out for Nc1ncnc2c1ncn2[C@@H]1O[C@H](/C=C/CNC(=O)c2cc(C(F)(F)F)cc(O)c2O)C(O)C1O (stereo in doubt) [Example 16] on UniProt:P22734?
Response: -1.46

Request: Any idea what log10 IC50 came out for Nc1ncnc2c1ncn2[C@@H]1O[C@H](/C=C/CNC(=O)c2cc(-c3nccs3)cc(O)c2O)C(O)C1O (stereo in doubt) [Example 10] on UniProt:P22734?
Response: -1.57

Request: Any idea what log10 IC50 came out for CN(C)C(=O)c1cc(O)c(O)c(C(=O)NC/C=C/[C@H]2O[C@@H](n3cnc4c(N)ncnc43)C(O)C2O)c1 (stereo in doubt) [Example 14] on UniProt:P22734?
Response: 0.30

Request: Any idea what log10 IC50 came out for Nc1ncnc2c1ncn2[C@@H]1O[C@H](/C=C/CNC(=O)c2cc(-c3ccncc3)cc(O)c2O)C(O)C1O (stereo in doubt) [Example 12] on UniProt:P22734?
Response: -1.64

Request: Any idea what log10 IC50 came out for Nc1ncnc2c1ncn2[C@@H]1O[C@H](/C=C/CNC(=O)c2cc(C(=O)c3ccncc3)cc(O)c2O)C(O)C1O (stereo in doubt) [Example 5] on UniProt:P22734?
Response: -1.38

Request: Any idea what log10 IC50 came out for Cc1ccc(C(=O)c2cc(O)c(O)c(C(=O)NC/C=C/[C@H]3O[C@@H](n4cnc5c(N)ncnc54)C(O)C3O)c2)cc1 (stereo in doubt) [Example 19] on UniProt:P22734?
Response: -1.47

Request: Any idea what log10 IC50 came out for Nc1ncnc2c1ncn2[C@@H]1O[C@H](/C=C/CNC(=O)c2cc(C(=O)C3CCCCC3)cc(O)c2O)C(O)C1O (stereo in doubt) [Example 6] on UniProt:P22734?
Response: -1.08

Request: Any idea what log10 IC50 came out for Nc1ncnc2c1ncn2[C@@H]1O[C@H](/C=C/CNC(=O)c2cc(Br)cc(O)c2O)C(O)C1O (stereo in doubt) [Example 2] on UniProt:P22734?
Response: -1.55

Request: Any idea what log10 IC50 came out for Cc1ccc(-c2cc(O)c(O)c(C(=O)NC/C=C/[C@H]3O[C@@H](n4cnc5c(N)ncnc54)C(O)C3O)c2)cc1 (stereo in doubt) [Example 9] on UniProt:P22734?
Response: -1.64

Request: Any idea what log10 IC50 came out for Nc1ncnc2c1ncn2[C@@H]1O[C@H](/C=C/CNC(=O)c2cc(-c3ccc(F)cc3)cc(O)c2O)C(O)C1O (stereo in doubt) [Example 8] on UniProt:P22734?
Response: -1.68

Request: Any idea what log10 IC50 came out for Nc1ncnc2c1ncn2[C@@H]1O[C@H](/C=C/CNC(=O)c2cc(C(=O)C(F)(F)F)cc(O)c2O)C(O)C1O (stereo in doubt) [Example 4] on UniProt:P22734?
Response: -1.41

Request: Any idea what log10 IC50 came out for Cc1ccc(S(=O)(=O)c2cc(O)c(O)c(C(=O)NC/C=C/[C@H]3O[C@@H](n4cnc5c(N)ncnc54)C(O)C3O)c2)cc1 (stereo in doubt) [Example 18] on UniProt:P22734?
Response: -0.67

Request: Any idea what log10 IC50 came out for Nc1ncnc2c1ncn2C1OC(C=CCNC(=O)c2cc([N+](=O)[O-])cc(O)c2O)C(O)C1O (stereo not drawn) [comparative example, reference compound] on UniProt:P22734?
Response: -2.05

Request: Any idea what log10 IC50 came out for Cc1ccc(Cc2cc(O)c(O)c(C(=O)NC/C=C/[C@H]3O[C@@H](n4cnc5c(N)ncnc54)C(O)C3O)c2)cc1 (stereo in doubt) [Example 13] on UniProt:P22734?
Response: -0.22

Request: Any idea what log10 IC50 came out for N#Cc1cc(O)c(O)c(C(=O)NC/C=C/[C@H]2O[C@@H](n3cnc4c(N)ncnc43)C(O)C2O)c1 (stereo in doubt) [Example 3] on UniProt:P22734?
Response: -1.54

Request: Any idea what log10 IC50 came out for Nc1ncnc2c1ncn2[C@@H]1O[C@H](/C=C/CNC(=O)c2cccc(O)c2O)C(O)C1O (stereo in doubt) [Example 1] on UniProt:P22734?
Response: 0.41

Request: Any idea what log10 IC50 came out for Nc1ncnc2c1ncn2[C@@H]1O[C@H](/C=C/CNC(=O)c2cc(Cl)cc(O)c2O)C(O)C1O (stereo in doubt) [Example 7] on UniProt:P22734?
Response: -1.36

Request: Any idea what log10 IC50 came out for CN(C)C(=O)/C=C/c1cc(O)c(O)c(C(=O)NC/C=C/[C@H]2O[C@@H](n3cnc4c(N)ncnc43)C(O)C2O)c1 (stereo in doubt) [Example 15] on UniProt:P22734?
Response: -1.01
